Tested on: UO-31 renal
Test: NCI-60 one-dose screen, 48 h
Details: 10 µM unless noted
This is part of a sample that, as a whole, favours compounds with a hit. Of some 83,000 tested, about 20% had one in any assay. Calls of active or inactive are those of the source. The calls were made as follows: active = growth percent below 10; inactive = the rest.
Your reply should match one of these outcome classes. 1 for active, 0 for inactive

I would be grateful if you could indicate the recorded call for O=C(NNc1nc2cc(C(F)(F)F)ccc2n2cccc12)c1cnccn1 .
1

I would be grateful if you could indicate the recorded call for CN(C)c1nc(NCCNS(=O)(=O)c2ccc(C3=Nc4c(N)nc(N)nc4NC(c4ccccc4)C3)cc2)nc(Nc2ccc(F)cc2)n1 (centres undefined) .
0

I would be grateful if you could indicate the recorded call for COc1ccc(C(=O)/C=C/c2ccc(OCc3ccccc3)c(OC)c2)cc1OC .
0

I would be grateful if you could indicate the recorded call for COc1ccc2[nH]cc(-c3nc(N)nnc3-c3cn(C)c4ncccc34)c2c1 .
0

I would be grateful if you could indicate the recorded call for NS(=O)(=O)c1ccc(-n2cc(-c3cccc(NC(=O)c4cc(N5CCOCC5)cc(C(F)(F)F)c4)c3)nn2)cc1 .
0

I would be grateful if you could indicate the recorded call for CC(=O)c1cccc(NC(=O)CCC(=O)NS(=O)(=O)c2ccc(C)cc2)c1 .
0

I would be grateful if you could indicate the recorded call for COc1ccc(C(=O)/C=C/c2ccc3ccccc3c2)cc1S(N)(=O)=O .
1

I would be grateful if you could indicate the recorded call for COc1ccc2c(c1)c(-c1cc(N)n3nc(-c4cn(C)c5ccccc45)cc3n1)cn2C .
1

I would be grateful if you could indicate the recorded call for O=C(COc1ccc(NC(=O)Nc2ccc(Cl)cc2)cc1)N/N=C/c1ccccc1 .
1

I would be grateful if you could indicate the recorded call for O=C1N/C(=N\c2nccs2)S/C1=C\C=C/c1ccccc1 .
0

I would be grateful if you could indicate the recorded call for CCOC(=O)C1=C(N)N(c2ccccc2)C2=C(C(=O)CC(C)(C)C2)C1c1ccccc1Cl (centres undefined) .
0

I would be grateful if you could indicate the recorded call for CCCCSc1nc(NCCc2c[nH]c3ccccc23)c(C#N)c(-c2ccccc2)n1 .
0

I would be grateful if you could indicate the recorded call for CC(=O)Oc1ccccc1C(=O)[Se]CC(=O)Nc1cccc(C(F)(F)F)c1 .
1

I would be grateful if you could indicate the recorded call for O=C(Cn1c(/C=C/c2ccccc2)nc2ccccc2c1=O)Nc1ccc(Cl)cc1 .
1

I would be grateful if you could indicate the recorded call for COc1cc2c(c(OC)c1OC)C(=O)CC(c1cccc(NC(=O)c3cccc(NC(=O)[C@H](C)NC(=O)OC(C)(C)C)c3)c1)O2 (some centres undefined) .
0

I would be grateful if you could indicate the recorded call for Cc1ccc(S(=O)(=O)c2nc(S(=O)(=O)c3ccc(C)cc3)c(N3CCN(C)CC3)s2)cc1 .
0

I would be grateful if you could indicate the recorded call for S=C(Nc1ccc(OCc2nc3ccccc3[nH]2)cc1)NC1CCCCC1 .
0

I would be grateful if you could indicate the recorded call for CN1CCN(c2ccc(C(=O)/C=C/c3cc(C(F)(F)F)cc(C(F)(F)F)c3)cc2)CC1 .
1

I would be grateful if you could indicate the recorded call for O=C(NN1C(=O)/C(=C/C=C/c2ccc([N+](=O)[O-])o2)SC1=S)c1ccc(Cl)cc1 .
1
